The reported measurements were obtained from patent US8648083B2.

Target: human platelet-induced 12-lipoxygenase (Homo sapiens)
Construct: human platelet-induced 12-lipoxygenase as a negative control; from tissue; host or cells: human platelets
Sequence (P18054 whole entry): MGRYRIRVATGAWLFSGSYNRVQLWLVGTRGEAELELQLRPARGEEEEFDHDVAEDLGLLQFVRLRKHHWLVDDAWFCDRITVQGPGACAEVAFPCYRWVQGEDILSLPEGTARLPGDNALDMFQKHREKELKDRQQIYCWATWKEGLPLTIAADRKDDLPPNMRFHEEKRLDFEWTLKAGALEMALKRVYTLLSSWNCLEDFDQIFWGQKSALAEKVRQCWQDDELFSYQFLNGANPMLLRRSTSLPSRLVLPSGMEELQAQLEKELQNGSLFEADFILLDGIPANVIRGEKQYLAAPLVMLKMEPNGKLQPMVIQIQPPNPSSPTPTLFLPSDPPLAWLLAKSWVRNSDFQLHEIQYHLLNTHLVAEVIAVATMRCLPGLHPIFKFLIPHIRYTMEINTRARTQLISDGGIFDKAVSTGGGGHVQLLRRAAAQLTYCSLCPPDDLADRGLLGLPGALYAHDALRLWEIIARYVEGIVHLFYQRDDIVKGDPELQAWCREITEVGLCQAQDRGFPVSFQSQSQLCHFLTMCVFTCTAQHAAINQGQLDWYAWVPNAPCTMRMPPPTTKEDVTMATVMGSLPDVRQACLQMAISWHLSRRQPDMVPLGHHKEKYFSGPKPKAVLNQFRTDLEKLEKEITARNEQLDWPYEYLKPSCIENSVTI
Test: In-vitro test on inhibitory effect on 12-lipoxygenase (12-HETE formation, absorbance 570 nm)
Format: biochemical
Conditions: compound 10 uM; 30 μM arachidonate; 25° C.; Tris-HCl pH 7.4; read-out: 12-lipoxygenase Inhibitory level at 10 uM (%)
Where a name gives a salt, the structure may show the parent alone.
assay_endpoint: inhibition at 10 µM (%)

Example entries begin here.
compound: NC(=O)OC(CC(=O)N1CCN(c2ccc3c(c2)OCO3)CC1)c1ccccc1 (stereo not shown)
system_under_test: human platelet-induced 12-lipoxygenase (Homo sapiens)
inhibition at 10 µM [%]: -8
//
compound: COc1ccc(N2CCN(C(=O)CC(OC(N)=O)c3ccc([N+](=O)[O-])cc3)CC2)cc1OC (stereo not shown)
system_under_test: human platelet-induced 12-lipoxygenase (Homo sapiens)
inhibition at 10 µM [%]: 0
//
compound: COc1ccc(N2CCN(C(=O)C[C@@H](OC(N)=O)c3ccccc3)CC2)cc1OC
system_under_test: human platelet-induced 12-lipoxygenase (Homo sapiens)
inhibition at 10 µM [%]: 15
//
compound: COc1ccc(N2CCN(C(C)CC(OC(N)=O)c3ccccc3)CC2)cc1OC (stereo not shown)
system_under_test: human platelet-induced 12-lipoxygenase (Homo sapiens)
inhibition at 10 µM [%]: 0
//
compound: COc1ccc(N2CCN(C(=O)C[C@H](OC(N)=O)c3ccccc3)CC2)cc1OC
system_under_test: human platelet-induced 12-lipoxygenase (Homo sapiens)
inhibition at 10 µM [%]: 2

1: COc1ccc(N2CCN(C(=O)CC(OC(N)=O)c3ccccc3)CC2)cc1OC (stereo not shown)
2: COc1ccc(N2CCN(C(=O)CC(OC(N)=O)c3ccc(F)cc3)CC2)cc1OC (stereo not shown)
3: COc1ccc(N2CCN(C(=O)CC(OC(N)=O)c3ccc(C(F)(F)F)cc3)CC2)cc1OC (stereo not shown) [Example 4, hydrochloride]
Rank items: key inhibition at 10 µM, increasing. Labels, ranked as asked.
2, 3, 1
(2: -5%, 3: 0%, 1: 10%)

A: NC(=O)O[C@H](CC(=O)N1CCN(c2ccc(Cl)cc2)CC1)c1ccccc1
B: COc1ccc(N2CCN(C(=O)CC(OC(N)=O)c3ccc(Cl)cc3)CC2)cc1OC (stereo not shown)
Field: lower recorded inhibition at 10 µM (choose A or B ) When you have decided, please share the label of that item.
B
(B: 7%, A: 11%)

* * *

Biological target: rabbit reticulocyte cells-induced 15-lipoxygenase (Oryctolagus cuniculus)
Construct: rabbit reticulocyte cells-induced 15-lipoxygenase as a test group; from tissue; host or cells: rabbit reticulocytes
Test: In-vitro test on inhibitory effect on 15-lipoxygenase (13-HPODE formation, absorbance 660 nm)
Type: biochemical
Conditions: compound 10 uM; 260 μM linolenic acid; 4° C.; PBS pH 7.4; read-out: 15-lipoxygenase Inhibitory level at 10 uM (%)
Counter-ions that a name gives are not always drawn.
assay_endpoint: inhibition at 10 µM (%)

Example entries and their recorded answers appear below.
molecule: COc1ccc(N2CCN(C(=O)CC(OC(N)=O)c3ccc([N+](=O)[O-])cc3)CC2)cc1OC (stereo not shown)
unit_abbrev: %
inhibition at 10 µM: 75
//
molecule: NC(=O)OC(CC(=O)N1CCN(c2ccc3c(c2)OCO3)CC1)c1ccccc1 (stereo not shown)
unit_abbrev: %
inhibition at 10 µM: 85
//
molecule: COc1ccc(N2CCN(C(=O)C[C@H](OC(N)=O)c3ccccc3)CC2)cc1OC
unit_abbrev: %
inhibition at 10 µM: 69

A: COc1ccc(N2CCN(C(=O)CC(OC(N)=O)c3ccc(Cl)cc3)CC2)cc1OC (stereo not shown)
B: NC(=O)O[C@H](CC(=O)N1CCN(c2ccc(Cl)cc2)CC1)c1ccccc1
C: COc1ccc(N2CCN(C(=O)CC(OC(N)=O)c3ccc(C(F)(F)F)cc3)CC2)cc1OC (stereo not shown) [Example 4, hydrochloride]
Rank descending by inhibition at 10 µM. I'd appreciate it if you listed the labels in the requested order.
B, A, C
(B: 114%, A: 72%, C: 48%)

* * *

Molecular target: rabbit reticulocyte cells-induced 15-lipoxygenase (Oryctolagus cuniculus)
Construct: rabbit reticulocyte cells-induced 15-lipoxygenase as a test group; from tissue; host or cells: rabbit reticulocytes
Sequence (P12530 1-663): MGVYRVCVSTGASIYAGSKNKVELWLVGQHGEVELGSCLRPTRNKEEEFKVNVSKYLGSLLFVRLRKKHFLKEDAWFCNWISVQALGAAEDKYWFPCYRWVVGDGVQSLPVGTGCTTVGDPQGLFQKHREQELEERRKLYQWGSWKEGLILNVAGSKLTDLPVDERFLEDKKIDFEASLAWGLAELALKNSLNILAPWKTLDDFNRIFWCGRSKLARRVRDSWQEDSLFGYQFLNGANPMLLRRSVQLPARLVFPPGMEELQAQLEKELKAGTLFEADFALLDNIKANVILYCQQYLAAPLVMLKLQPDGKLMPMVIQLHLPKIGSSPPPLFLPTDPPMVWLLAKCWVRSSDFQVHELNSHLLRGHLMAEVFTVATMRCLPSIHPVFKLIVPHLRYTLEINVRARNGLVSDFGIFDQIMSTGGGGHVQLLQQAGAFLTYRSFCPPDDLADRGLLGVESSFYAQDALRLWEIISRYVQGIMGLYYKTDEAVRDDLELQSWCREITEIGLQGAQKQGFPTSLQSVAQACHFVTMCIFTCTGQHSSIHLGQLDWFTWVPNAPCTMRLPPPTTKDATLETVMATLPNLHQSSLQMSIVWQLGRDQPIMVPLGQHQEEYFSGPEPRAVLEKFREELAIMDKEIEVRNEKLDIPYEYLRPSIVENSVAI
Experiment: In-vitro test on inhibitory effect on 15-lipoxygenase (13-HPODE formation, absorbance 660 nm)
Format: biochemical
Conditions: compound 10 uM; 260 μM linolenic acid; 4° C.; PBS pH 7.4; read-out: 15-lipoxygenase Inhibitory level at 10 uM (%)
Method: 12-lipoxygenase reacts with arachidonate as a substrate to produce 12-hydroxyeicosatetrenoate (12-HETE) as a product. Accordingly, 12-lipoxygenase activity is evaluated by measuring an amount of generated 12-HETE by spectrometry. […] Accordingly, 15-lipoxygenase activity is evaluated by measuring an amount of generated 13-HPODE by spectrometry. 15-lipoxygenase activity was measured when a concentration of each of the compounds was 10 μM. […]
assay_endpoint: inhibition at 10 µM (%)

compound: COc1ccc(N2CCN(C(C)CC(OC(N)=O)c3ccccc3)CC2)cc1OC (stereo not shown) [Example 9]
unit_abbrev: %
inhibition at 10 µM: 62
//
compound: COc1ccc(N2CCN(C(=O)C[C@@H](OC(N)=O)c3ccccc3)CC2)cc1OC [Example 8]
unit_abbrev: %
inhibition at 10 µM: 79
//
compound: COc1ccc(N2CCN(C(=O)CC(OC(N)=O)c3ccccc3)CC2)cc1OC (stereo not shown) [Example 1]
unit_abbrev: %
inhibition at 10 µM: 73
//
compound: COc1ccc(N2CCN(C(=O)CC(OC(N)=O)c3ccc(F)cc3)CC2)cc1OC (stereo not shown) [Example 2]
unit_abbrev: %
inhibition at 10 µM: 69
